Assay Text: pharmacokinetics in subjects undergoing CABG surgery with hypothermic CPB
Type: in vivo, human
Condition Description: human, whole blood, other: directly into the bypass oxygenator, 2.7 g PFC/kg
Recorded Endpoint: AUC(0-inf) (µg·h/mL)

a: FC(F)(F)C(F)(F)C(F)(F)C(F)(F)C(F)(F)C(F)(F)C(F)(F)C(F)(F)Br [PFOB, perfluorooctyl bromide]
b: FC(F)(F)C(F)(F)C(F)(F)C(F)(F)C(F)(F)C(F)(F)C(F)(F)C(F)(F)C(F)(F)C(F)(F)Br [PFDB, perfluorodecyl bromide]
I need your help: which of the pair a , b has higher AUC(0-inf)? Write the label of whichever entry you select.
a
